# Read-out: Intercellular Adhesion Molecule 1 (ICAM1), ICAM1 (gene 3383)
# EXPERIMENT DESCRIPTION: LTEA_HepaRG_ICAM1: Life Technologies and Expression Analysis (LTEA) Assay for Intercellular Adhesion Molecule 1 (ICAM1) using HepaRG (AID 2283507)
# EXPERIMENTAL PARAMETERS: mRNA level, 48 h; actives raise or lower the signal
Activity calls are given as the source filed them. Rule for the calls: active = hit-call score of the fitted dose curve at least 0.9, where 1 is the maximum; inactive = score below 0.9.
Outcomes: yes for active, no for inactive

# COMPOUND STRUCTURE, LABEL VALUE
measured = [
    ("c1ccc2ncccc2c1", "no"),
    ("CCCCCCCCCCCCCCO", "no"),
    ("CC[C@H](C)C(=O)O[C@H]1C[C@H](O)C=C2C=C[C@H](C)[C@H](CC[C@@H](O)C[C@@H](O)CC(=O)O)[C@H]21", "no"),
    ("O=C(O)c1cccc(C(=O)O)c1", "no"),
    ("OC(Cn1cncn1)(Cn1cncn1)c1ccc(F)cc1F", "no"),
    ("CC1(C)C(=O)N(Cl)C(=O)N1Cl", "no"),
    ("COCc1nnc(-c2ccc[n+]([O-])c2)n1-c1c(Cl)c(Cl)cc2[nH]c(=O)c(=O)[nH]c12", "no"),
    ("O=C1CN(N=Cc2ccc([N+](=O)[O-])o2)C(=O)N1", "no"),
    ("O=C(O)c1cccc(C[C@@H]2COc3ccc(OCc4nc5cc(F)ccc5s4)cc3[C@@H]2O)c1", "no"),
    ("CCn1nc(C)c2c1C(=O)NCC(c1ccc(O)cc1)=N2", "no"),
    ("NC(N)=O", "no"),
    ("Cc1nc(-c2ccccn2)ncc1C(=O)Nn1cc(C)c2cc(F)ccc21", "no"),
    ("c1ccc2cc3ccccc3cc2c1", "no"),
    ("CC(C)C(=O)Nc1ccc([N+](=O)[O-])c(C(F)(F)F)c1", "yes"),
    ("Cc1ccc(S(=O)(=O)NC(=O)NN2CCCCCC2)cc1", "no"),
    ("CNC(C)=O", "no"),
    ("O=c1[nH]cnc2c1ncn2[C@H]1CC[C@@H](CO)O1", "no"),
    ("NC(=O)NN=Cc1ccc([N+](=O)[O-])o1", "yes"),
    ("CCCCOC(=O)c1ccccc1", "no"),
    ("OCC(CO)(CO)CO", "no"),
]

----------
# Read-out: Transforming Growth Factor (TGFA), TGFA (gene 7039)
# EXPERIMENT DESCRIPTION: LTEA_HepaRG_TGFA: Life Technologies and Expression Analysis (LTEA) Assay for Transforming Growth Factor (TGFA) using HepaRG (AID 2283532)
# EXPERIMENTAL PARAMETERS: mRNA level, 48 h; actives raise or lower the signal
Calls of active or inactive are those of the source. The calls were made as follows: active = hit-call score of the fitted dose curve at least 0.9, where 1 is the maximum; inactive = score below 0.9.
Possible outcomes: active, inactive

# COMPOUND STRUCTURE, LABEL VALUE
data = [
    ("CC(C)C(=O)Nc1ccc([N+](=O)[O-])c(C(F)(F)F)c1", "active"),
    ("CCOc1ccc2[nH]cc(C(=O)NCc3ccccc3)c(=O)c2n1", "inactive"),
    ("OC[C@H]1O[C@@H]2O[C@H]3[C@H](O)[C@@H](O)[C@@H](O[C@H]4[C@H](O)[C@@H](O)[C@@H](O[C@H]5[C@H](O)[C@@H](O)[C@@H](O[C@H]6[C@H](O)[C@@H](O)[C@@H](O[C@H]7[C@H](O)[C@@H](O)[C@@H](O[C@H]1[C@H](O)[C@H]2O)O[C@@H]7CO)O[C@@H]6CO)O[C@@H]5CO)O[C@@H]4CO)O[C@@H]3CO", "inactive"),
    ("COS(C)(=O)=O", "inactive"),
    ("CC(=O)c1ccccc1", "inactive"),
    ("OCC(CO)(CO)CO", "inactive"),
    ("O=C1CN(N=Cc2ccc([N+](=O)[O-])o2)C(=O)N1", "inactive"),
    ("CC[C@H](C)C(=O)O[C@H]1C[C@H](O)C=C2C=C[C@H](C)[C@H](CC[C@@H](O)C[C@@H](O)CC(=O)O)[C@H]21", "inactive"),
    ("CCn1nc(C)c2c1C(=O)NCC(c1ccc(O)cc1)=N2", "inactive"),
    ("O=S(=O)(O)c1ccc(N=Nc2c(O)ccc3cc(S(=O)(=O)O)ccc23)cc1", "inactive"),
    ("CCCCCOC(C)=O", "inactive"),
    ("COc1cc2c(c(OC)c1OC)-c1ccc(OC)c(=O)cc1[C@@H](NC(C)=O)CC2", "active"),
    ("O=C(O)c1cccc(C[C@@H]2COc3ccc(OCc4nc5cc(F)ccc5s4)cc3[C@@H]2O)c1", "inactive"),
    ("c1ccc2c(c1)-c1cccc3c1c-2cc1ccccc13", "active"),
]
